biological target: PARP-1 (Homo sapiens, UniProt P09874); construct: purchased Trevigen (Gaithersburg, Md.); host or cells: E. coli; experiment: PARP1 assay (inhibition of PARP, [3H]-NAD+ / biotinylated histone H1, FlashPlate scintillation); assay type: biochemical; details: recombinant human PARP, 1 nM enzyme, 1.5 μM [3H]-NAD+; inhibition curves at various substrate concentrations; read-out: PARP-1 (Ki)
Sequence (P09874 whole entry): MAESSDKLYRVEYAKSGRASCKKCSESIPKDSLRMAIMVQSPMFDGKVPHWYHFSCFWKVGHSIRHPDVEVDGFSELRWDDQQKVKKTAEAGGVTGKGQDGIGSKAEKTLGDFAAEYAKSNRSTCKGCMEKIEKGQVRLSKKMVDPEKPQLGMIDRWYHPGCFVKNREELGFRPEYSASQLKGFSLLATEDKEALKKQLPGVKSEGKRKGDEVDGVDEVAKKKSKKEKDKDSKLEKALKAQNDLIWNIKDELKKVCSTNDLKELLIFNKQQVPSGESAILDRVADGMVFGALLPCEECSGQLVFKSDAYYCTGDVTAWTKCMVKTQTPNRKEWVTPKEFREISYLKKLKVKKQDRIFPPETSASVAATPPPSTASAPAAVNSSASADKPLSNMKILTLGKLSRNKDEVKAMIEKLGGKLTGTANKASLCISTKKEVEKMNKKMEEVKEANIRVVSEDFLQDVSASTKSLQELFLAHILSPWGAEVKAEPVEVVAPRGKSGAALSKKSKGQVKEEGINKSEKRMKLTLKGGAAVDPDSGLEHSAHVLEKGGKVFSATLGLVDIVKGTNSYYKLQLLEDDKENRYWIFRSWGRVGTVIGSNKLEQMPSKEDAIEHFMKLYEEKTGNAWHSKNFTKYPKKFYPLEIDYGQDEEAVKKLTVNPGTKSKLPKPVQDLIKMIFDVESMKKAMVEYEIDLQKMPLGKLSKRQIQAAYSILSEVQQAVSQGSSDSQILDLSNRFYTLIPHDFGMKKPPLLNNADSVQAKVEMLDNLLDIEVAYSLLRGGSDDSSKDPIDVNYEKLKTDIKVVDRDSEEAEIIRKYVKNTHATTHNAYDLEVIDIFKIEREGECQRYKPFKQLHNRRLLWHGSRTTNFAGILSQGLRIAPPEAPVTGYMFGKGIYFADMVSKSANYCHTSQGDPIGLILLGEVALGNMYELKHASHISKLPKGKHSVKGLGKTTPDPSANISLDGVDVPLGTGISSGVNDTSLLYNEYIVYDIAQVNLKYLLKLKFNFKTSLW
Observation Type: log10 Ki (log10 of the value in nM)
Lab note - Ki converted to log10 from values in nM.

Reported log10 Ki for PARP-1 (Homo sapiens, UniProt P09874), given CN(C)CCNCc1ccc2c(c1)[nH]c(=O)c1cccn12 [Example 65] ?
2.63

Reported log10 Ki for PARP-1 (Homo sapiens, UniProt P09874), given CC(C)NCc1ccc2c(c1)CNC(=O)c1cccn1-2 [Example 28] ?
3.17

Reported log10 Ki for PARP-1 (Homo sapiens, UniProt P09874), given O=C(Nc1nccs1)c1ccc2c(c1)[nH]c(=O)c1cccn12 [Example 84] ?
1.99

Reported log10 Ki for PARP-1 (Homo sapiens, UniProt P09874), given CN1CCN(Cc2ccc3c(c2)NC(=O)C2CCCCN32)CC1 (stereo not drawn) [Example 42] ?
3.89

Reported log10 Ki for PARP-1 (Homo sapiens, UniProt P09874), given O=C1NCc2cc(CN3CCCC3)ccc2-n2cccc21 [Example 27] ?
3.05

Reported log10 Ki for PARP-1 (Homo sapiens, UniProt P09874), given O=C1NCc2cc(CNC3CCCC3)ccc2-n2cccc21 [Example 33] ?
2.74

Reported log10 Ki for PARP-1 (Homo sapiens, UniProt P09874), given O=c1[nH]c2cc(CN3CCCC3)ccc2n2ccnc12 [Example 21] ?
2.45

Reported log10 Ki for PARP-1 (Homo sapiens, UniProt P09874), given O=C(NCCCCc1ccccc1)c1ccc2c(c1)[nH]c(=O)c1cccn12 [Example 81] ?
1.97

Reported log10 Ki for PARP-1 (Homo sapiens, UniProt P09874), given O=c1[nH]c2cc(CNC3CCCCC3)ccc2n2cccc12 [Example 1] ?
2.68

Reported log10 Ki for PARP-1 (Homo sapiens, UniProt P09874), given O=C1NCc2cc(CNCc3ccccc3)ccc2-n2cccc21 [Example 32] ?
2.91

Reported log10 Ki for PARP-1 (Homo sapiens, UniProt P09874), given CC(C)N(Cc1ccc2[nH]c(=O)c3cccn3c2c1)S(=O)(=O)c1ccccc1 [Example 54] ?
2.80

Reported log10 Ki for PARP-1 (Homo sapiens, UniProt P09874), given O=c1[nH]c2cc(CNCC3CCCCC3)ccc2n2cccc12 [Example 2] ?
1.96

Reported log10 Ki for PARP-1 (Homo sapiens, UniProt P09874), given O=C1CCCN1Cc1ccc2c(c1)[nH]c(=O)c1cccn12 [Example 52] ?
2.84

Reported log10 Ki for PARP-1 (Homo sapiens, UniProt P09874), given O=c1[nH]c2cc(CN3CCOCC3)ccc2n2ccnc12 [Example 25] ?
3.45

Reported log10 Ki for PARP-1 (Homo sapiens, UniProt P09874), given CN(Cc1ccc2c(c1)NC(=O)C1CCCN21)C1CCCCC1 (stereo not drawn) [Example 47] ?
3.33

Reported log10 Ki for PARP-1 (Homo sapiens, UniProt P09874), given CN(C)C1CCC(NC(=O)c2ccc3c(c2)[nH]c(=O)c2cccn23)CC1 (stereo not drawn) [Example 74] ?
2.89

Reported log10 Ki for PARP-1 (Homo sapiens, UniProt P09874), given CN(Cc1ccc2c(c1)NC(=O)C1CCCCN21)C1CCCCC1 (stereo not drawn) [Example 40] ?
3.18

Reported log10 Ki for PARP-1 (Homo sapiens, UniProt P09874), given O=c1[nH]c2ccc(CNCCc3ccccc3)cc2n2cccc12 [Example 14] ?
1.99

Reported log10 Ki for PARP-1 (Homo sapiens, UniProt P09874), given O=C1Nc2cc(CNC3CCCCC3)ccc2N2CCCCC12 (stereo not drawn) [Example 36] ?
3.54

Reported log10 Ki for PARP-1 (Homo sapiens, UniProt P09874), given O=C(NCCCN1CCCCC1)c1ccc2c(c1)[nH]c(=O)c1cccn12 [Example 70] ?
2.14

Reported log10 Ki for PARP-1 (Homo sapiens, UniProt P09874), given CCN(C)Cc1ccc2c(c1)NC(=O)C1CCCN21 (stereo not drawn) [Example 46] ?
2.11

Reported log10 Ki for PARP-1 (Homo sapiens, UniProt P09874), given CN1CCN(Cc2ccc3c(c2)CNC(=O)c2cccn2-3)CC1 [Example 29] ?
3.18

Reported log10 Ki for PARP-1 (Homo sapiens, UniProt P09874), given CC(C)N(C)Cc1ccc2c(c1)NC(=O)C1CCCN21 (stereo not drawn) [Example 50] ?
3.29

Reported log10 Ki for PARP-1 (Homo sapiens, UniProt P09874), given NC1CCN(Cc2ccc3c(c2)[nH]c(=O)c2cccn23)CC1 [Example 86] ?
1.54

Reported log10 Ki for PARP-1 (Homo sapiens, UniProt P09874), given CN(C)CCNC(=O)c1ccc2c(c1)[nH]c(=O)c1cccn12 [Example 68] ?
3.21

Reported log10 Ki for PARP-1 (Homo sapiens, UniProt P09874), given O=C(CNCc1ccc2c(c1)[nH]c(=O)c1cccn12)N1CCCC1 [Example 76] ?
2.17

Reported log10 Ki for PARP-1 (Homo sapiens, UniProt P09874), given O=C(NCC(=O)N1CCCC1)c1ccc2c(c1)[nH]c(=O)c1cccn12 [Example 73] ?
2.94

Reported log10 Ki for PARP-1 (Homo sapiens, UniProt P09874), given O=c1[nH]c2cc(CN3CCCCC3)ccc2n2ccnc12 [Example 22] ?
2.52

Reported log10 Ki for PARP-1 (Homo sapiens, UniProt P09874), given CCN1CCCC(NC(=O)c2ccc3c(c2)[nH]c(=O)c2cccn23)C1 (stereo not drawn) [Example 80] ?
2.05

Reported log10 Ki for PARP-1 (Homo sapiens, UniProt P09874), given O=c1[nH]c2cc(CNCCCN3CCCCC3)ccc2n2cccc12 [Example 69] ?
2.11

Reported log10 Ki for PARP-1 (Homo sapiens, UniProt P09874), given CC(C)NCc1ccc2c(c1)NC(=O)C1CCCCN21 (stereo not drawn) [Example 38] ?
2.53

Reported log10 Ki for PARP-1 (Homo sapiens, UniProt P09874), given O=c1[nH]c2ccc(CNC3CCCC3)cc2n2cccc12 [Example 18] ?
1.90

Reported log10 Ki for PARP-1 (Homo sapiens, UniProt P09874), given O=c1[nH]c2ccc(CNCC3CCCCC3)cc2n2cccc12 [Example 9] ?
2.31

Reported log10 Ki for PARP-1 (Homo sapiens, UniProt P09874), given CCN(C)Cc1ccc2c(c1)NC(=O)C1CCCCN21 (stereo not drawn) [Example 39] ?
1.85

Reported log10 Ki for PARP-1 (Homo sapiens, UniProt P09874), given O=c1[nH]c2cc(CNC3CCC3)ccc2n2cccc12 [Example 3] ?
1.92

Reported log10 Ki for PARP-1 (Homo sapiens, UniProt P09874), given CCS(=O)(=O)N(Cc1ccc2[nH]c(=O)c3cccn3c2c1)C1CCC1 [Example 53] ?
2.96

Reported log10 Ki for PARP-1 (Homo sapiens, UniProt P09874), given O=C1NCc2cc(CNCC3CCCCC3)ccc2-n2cccc21 [Example 31] ?
3.17

Reported log10 Ki for PARP-1 (Homo sapiens, UniProt P09874), given O=C(Nc1cccc(S(=O)(=O)N2CCCCC2)c1)c1ccc2c(c1)[nH]c(=O)c1cccn12 [Example 75] ?
3.21

All figures here come from patent US7790721B2.
